TEST_DESCRIPTION: Octanol-phosphate buffer apparent partition coefficient, log D of the compound at pH 7.4 by GLC analysis
Assay type: physicochemical
# Lookup of reported logD keyed by entry
In your answer, state the number alone without any accompanying words.

Bench note: what logD did "Br.CCCCN1CC2CC(CN(C)C2)C1" show? -3.39

Bench note: what logD did CC(C)C1C2CC(CN(C)C2)CN1C.Cl (stereo not drawn) show? -3.4

Bench note: what logD did C1CCN2C[C@@H]3C[C@@H](CN4CCCC[C@@H]34)[C@H]2C1.O.O.O.O.O.O=S(=O)(O)O [SPARTEINE SULFATE] show? -1.57

###

TEST_DESCRIPTION: Octanol-phosphate buffer apparent partition coefficient, log D of the compound at pH 7.4 by GLC analysis
Format: physicochemical
# Lookup of reported logD keyed by entry

[
  {
    "SMILES_DATA": "CN1CC2CC(C1)CN(Cc1ccccc1)C2.CS(=O)(=O)O",
    "logD": -2.57
  },
  {
    "SMILES_DATA": "CCCCN1CC2CC(C1)CN(Cc1ccccc1)C2.Cl",
    "logD": -1.22
  },
  {
    "SMILES_DATA": "CN1CC2CC(C1)CN(C(c1ccccc1)c1ccccc1)C2.Cl",
    "logD": -0.43
  },
  {
    "SMILES_DATA": "CCCCN1CC2CC(C1)CN(CCCC)C2.Cl",
    "logD": -2.07
  }
]

Please look at the following compound next.
Bench note: what logD did "Cl.c1ccc(CN2CC3CC(C2)CN(Cc2ccccc2)C3)cc1" show? -0.43
